Reference for the values: paper PMC10500007

# measured on: α8β1 (Homo sapiens)
# Sequence (chain, as listed by the source, chain 1 of 2): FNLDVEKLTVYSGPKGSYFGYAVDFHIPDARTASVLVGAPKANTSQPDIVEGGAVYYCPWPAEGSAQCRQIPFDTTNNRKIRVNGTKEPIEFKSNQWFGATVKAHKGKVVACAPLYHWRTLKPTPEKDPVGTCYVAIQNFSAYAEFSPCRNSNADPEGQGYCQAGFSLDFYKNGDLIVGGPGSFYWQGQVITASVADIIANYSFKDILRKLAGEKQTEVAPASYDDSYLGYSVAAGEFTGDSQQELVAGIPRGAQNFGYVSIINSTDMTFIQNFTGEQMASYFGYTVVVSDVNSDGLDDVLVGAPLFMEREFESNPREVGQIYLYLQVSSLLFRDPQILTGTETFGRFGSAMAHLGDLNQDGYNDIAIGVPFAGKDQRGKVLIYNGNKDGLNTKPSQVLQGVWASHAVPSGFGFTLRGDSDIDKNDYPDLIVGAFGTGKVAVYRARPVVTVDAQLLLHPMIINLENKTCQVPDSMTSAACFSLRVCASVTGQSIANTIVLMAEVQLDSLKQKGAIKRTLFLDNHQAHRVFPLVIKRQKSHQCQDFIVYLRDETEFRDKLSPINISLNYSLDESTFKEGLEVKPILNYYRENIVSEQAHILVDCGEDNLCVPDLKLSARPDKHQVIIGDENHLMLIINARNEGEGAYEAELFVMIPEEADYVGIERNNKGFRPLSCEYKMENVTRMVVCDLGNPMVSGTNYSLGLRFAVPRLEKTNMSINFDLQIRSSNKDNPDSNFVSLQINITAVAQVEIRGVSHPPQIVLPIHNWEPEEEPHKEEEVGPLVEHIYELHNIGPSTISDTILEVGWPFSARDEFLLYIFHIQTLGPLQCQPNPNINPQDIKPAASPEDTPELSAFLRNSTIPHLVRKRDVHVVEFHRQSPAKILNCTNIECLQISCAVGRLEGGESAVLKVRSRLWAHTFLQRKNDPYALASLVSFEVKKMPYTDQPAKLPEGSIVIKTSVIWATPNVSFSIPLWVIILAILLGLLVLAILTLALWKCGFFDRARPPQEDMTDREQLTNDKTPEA
# Sequence (chain, as listed by the source, chain 2 of 2): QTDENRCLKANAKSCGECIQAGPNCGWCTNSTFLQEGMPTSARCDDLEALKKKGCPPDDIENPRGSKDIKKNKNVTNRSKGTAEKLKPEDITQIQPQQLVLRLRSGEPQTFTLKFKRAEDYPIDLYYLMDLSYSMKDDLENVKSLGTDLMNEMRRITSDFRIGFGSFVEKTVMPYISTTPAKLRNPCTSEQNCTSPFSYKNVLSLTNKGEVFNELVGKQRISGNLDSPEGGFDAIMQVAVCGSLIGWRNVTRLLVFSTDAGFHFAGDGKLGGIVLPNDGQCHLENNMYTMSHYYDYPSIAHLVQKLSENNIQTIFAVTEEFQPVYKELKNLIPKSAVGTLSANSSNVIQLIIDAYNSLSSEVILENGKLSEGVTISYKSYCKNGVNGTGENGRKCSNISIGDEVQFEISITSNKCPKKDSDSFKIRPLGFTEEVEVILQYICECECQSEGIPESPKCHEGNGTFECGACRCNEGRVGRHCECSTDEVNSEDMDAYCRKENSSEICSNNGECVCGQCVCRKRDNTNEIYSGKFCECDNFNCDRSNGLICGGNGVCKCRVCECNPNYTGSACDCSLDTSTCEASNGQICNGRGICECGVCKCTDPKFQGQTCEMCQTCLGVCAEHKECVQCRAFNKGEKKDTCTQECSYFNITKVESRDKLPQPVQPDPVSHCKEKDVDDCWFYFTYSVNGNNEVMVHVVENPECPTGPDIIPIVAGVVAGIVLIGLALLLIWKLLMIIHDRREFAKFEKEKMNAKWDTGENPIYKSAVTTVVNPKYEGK
# procedure details: BLI
pKd: −log10 of the molar value.
measurement kind: pKd

- binder: "B8_BP-LATY (designed binder, full-length mature chains taken as on K562 cells; soluble ectodomain possible for BLI; divalent cations, glycosylated) TKCVVRFNFRGDLATYALKAVKDHLKKEGPHWNITTHNDDEVYLVVRGIHESDAKRIAKWVESTIPGISVETQCD"
  reported: "< 6.00"

Then there is this binder:
INPUT: Data request, read-out pKd, for B6_BP_dslf (designed binder, full-length mature chains taken as on K562 cells; soluble ectodomain possible for BLI; divalent cations, glycosylated) TKCVVRFVFRGDLAELMLRAVKDHLKKEGPHWNITSTNNGKELVVRGIHESDAKRIAKWVEKRFPRVHTETQCD
OUTPUT: < 6.70
